# test-name: Pharmacokinetic profile in mice after I.V. injection (LC-MS/MS of plasma, brain, liver, kidney)
# Type: in vivo, mouse
# condition-info: male, C57BL/6, mouse, iv; plasma, 200 mg/kg I.V.
experimental-endpoint: half-life
Could you write the number and then its unit?

Ask: Read off the recorded half-life for COc1cc(CC(=O)Nc2cc(C3CCC3)[nH]n2)cc(OC)c1OC
Result: 11 h

---

# test-name: Pharmacokinetic profile in mice after I.V. injection (LC-MS/MS of plasma, brain, liver, kidney)
# Type: in vivo, mouse
# condition-info: male, C57BL/6, mouse, liver, iv, 10 mg/kg, liver, 10 mg/kg I.V.; read-out: Cmax
experimental-endpoint: Cmax (ng/g)
The reply should be a number in ng/g, with the unit left off.

Ask: Read off the recorded Cmax for COc1cc(CC(=O)Nc2cc(C3CCC3)[nH]n2)cc(OC)c1OC [25–106]
Result: 1760

---

# test-name: Pharmacokinetic profile in mice after I.V. injection (LC-MS/MS of plasma, brain, liver, kidney)
# Type: in vivo, mouse
# condition-info: male, C57BL/6, mouse, iv; liver, 100 mg/kg I.V.; read-out: AUC24h
experimental-endpoint: AUC(0-t)
Could you write the number and then its unit?

Ask: Read off the recorded AUC(0-t) for COc1cc(CC(=O)Nc2cc(C3CCC3)[nH]n2)cc(OC)c1OC
Result: 3320 ng·h/mL

---

# test-name: Pharmacokinetic profile in mice after I.V. injection (LC-MS/MS of plasma, brain, liver, kidney)
# Type: in vivo, mouse
# condition-info: male, C57BL/6, mouse, brain, iv, 10 mg/kg, 10 mg/kg I.V.
experimental-endpoint: clearance (mL/min)
The reply should be a number in mL/min, with the unit left off.

Ask: Read off the recorded clearance for COc1cc(CC(=O)Nc2cc(C3CCC3)[nH]n2)cc(OC)c1OC
Result: 66.3

---

# test-name: Pharmacokinetic profile in mice after I.V. injection (LC-MS/MS of plasma, brain, liver, kidney)
# Type: in vivo, mouse
# condition-info: male, C57BL/6, mouse, brain, iv, 200 mg/kg, brain, 200 mg/kg I.V.; read-out: Cmax
experimental-endpoint: Cmax (ng/g)
The reply should be a number in ng/g, with the unit left off.

Ask: Read off the recorded Cmax for COc1cc(CC(=O)Nc2cc(C3CCC3)[nH]n2)cc(OC)c1OC [25–106]
Result: 669

---

# test-name: Pharmacokinetic profile in mice after I.V. injection (LC-MS/MS of plasma, brain, liver, kidney)
# Format: in vivo, mouse
# condition-info: male, C57BL/6, mouse, iv; brain, 10 mg/kg I.V.; read-out: Ke (converted)
experimental-endpoint: k el (s⁻¹)
The reply should be a number in s⁻¹, with the unit left off.

Ask: Read off the recorded k el for COc1cc(CC(=O)Nc2cc(C3CCC3)[nH]n2)cc(OC)c1OC
Result: 1.67e-05

---

# test-name: Pharmacokinetic profile in mice after I.V. injection (LC-MS/MS of plasma, brain, liver, kidney)
# Type: in vivo, mouse
# condition-info: male, C57BL/6, mouse, plasma, iv, 100 mg/kg, plasma, 100 mg/kg I.V.; read-out: Cmax
# Description: The wild-type group housed male C57BL/6 mice 10–12 weeks of age were used for all in vivo, ex vivo, and behavioral studies. This age range was selected to be consistent with previous studies of conditional Cdk5 knockout mice ([Plattner et al., 2015]). […] A quantitative determination of 25–106 in mouse plasma and tissue homogenate was accomplished by the use of protein precipitation and high-performance liquid chromatography with tandem mass spectrometry detection (LC-MS/MS). […]
experimental-endpoint: Cmax (ng/mL)
The reply should be a number in ng/mL, with the unit left off.

Ask: Read off the recorded Cmax for COc1cc(CC(=O)Nc2cc(C3CCC3)[nH]n2)cc(OC)c1OC
Result: 2580

---

# test-name: Pharmacokinetic profile in mice after I.V. injection (LC-MS/MS of plasma, brain, liver, kidney)
# Assay type: in vivo, mouse
# condition-info: male, C57BL/6, mouse, iv; kidney, 100 mg/kg I.V.; read-out: AUC24h
experimental-endpoint: AUC(0-t) (ng·h/mL)
The reply should be a number in ng·h/mL, with the unit left off.

Ask: Read off the recorded AUC(0-t) for COc1cc(CC(=O)Nc2cc(C3CCC3)[nH]n2)cc(OC)c1OC [25–106]
Result: 9420

---

# test-name: Pharmacokinetic profile in mice after I.V. injection (LC-MS/MS of plasma, brain, liver, kidney)
# Type: in vivo, mouse
# condition-info: male, C57BL/6, mouse, iv; kidney, 200 mg/kg I.V.; read-out: AUC24h
experimental-endpoint: AUC(0-t) (ng·h/mL)
The reply should be a number in ng·h/mL, with the unit left off.

Ask: Read off the recorded AUC(0-t) for COc1cc(CC(=O)Nc2cc(C3CCC3)[nH]n2)cc(OC)c1OC
Result: 14400

---

# test-name: Pharmacokinetic profile in mice after I.V. injection (LC-MS/MS of plasma, brain, liver, kidney)
# Format: in vivo, mouse
# condition-info: male, C57BL/6, mouse, brain, iv, 50 mg/kg, brain, 50 mg/kg I.V.; read-out: Cmax
experimental-endpoint: Cmax
Could you write the number and then its unit?

Ask: Read off the recorded Cmax for COc1cc(CC(=O)Nc2cc(C3CCC3)[nH]n2)cc(OC)c1OC
Result: 118 ng/g

---

# test-name: Pharmacokinetic profile in mice after I.V. injection (LC-MS/MS of plasma, brain, liver, kidney)
# Format: in vivo, mouse
# condition-info: male, C57BL/6, mouse, iv; liver, 50 mg/kg I.V.; read-out: AUC24h
experimental-endpoint: AUC(0-t) (µg·h/mL)
The reply should be a number in µg·h/mL, with the unit left off.

Ask: Read off the recorded AUC(0-t) for COc1cc(CC(=O)Nc2cc(C3CCC3)[nH]n2)cc(OC)c1OC
Result: 2.76

---

# test-name: Pharmacokinetic profile in mice after I.V. injection (LC-MS/MS of plasma, brain, liver, kidney)
# Assay type: in vivo, mouse
# condition-info: male, C57BL/6, mouse, iv; brain, 100 mg/kg I.V.
experimental-endpoint: half-life (h)
The reply should be a number in h, with the unit left off.

Ask: Read off the recorded half-life for COc1cc(CC(=O)Nc2cc(C3CCC3)[nH]n2)cc(OC)c1OC [25–106]
Result: 5.03

---

# test-name: Pharmacokinetic profile in mice after I.V. injection (LC-MS/MS of plasma, brain, liver, kidney)
# Format: in vivo, mouse
# condition-info: male, C57BL/6, mouse, iv; plasma, 10 mg/kg I.V.; read-out: Clast
experimental-endpoint: concentration at 24 h (ng/mL)
The reply should be a number in ng/mL, with the unit left off.

Ask: Read off the recorded concentration at 24 h for COc1cc(CC(=O)Nc2cc(C3CCC3)[nH]n2)cc(OC)c1OC
Result: 16.3

---

# test-name: Pharmacokinetic profile in mice after I.V. injection (LC-MS/MS of plasma, brain, liver, kidney)
# Assay type: in vivo, mouse
# condition-info: male, C57BL/6, mouse, iv; brain, 50 mg/kg I.V.; read-out: AUC24h
experimental-endpoint: AUC(0-t)
Could you write the number and then its unit?

Ask: Read off the recorded AUC(0-t) for COc1cc(CC(=O)Nc2cc(C3CCC3)[nH]n2)cc(OC)c1OC
Result: 90 ng·h/mL

---

# test-name: Pharmacokinetic profile in mice after I.V. injection (LC-MS/MS of plasma, brain, liver, kidney)
# Assay type: in vivo, mouse
# condition-info: male, C57BL/6, mouse, iv; plasma, 200 mg/kg I.V.; read-out: Clast
experimental-endpoint: concentration at 24 h

Ask: Read off the recorded concentration at 24 h for COc1cc(CC(=O)Nc2cc(C3CCC3)[nH]n2)cc(OC)c1OC [25–106]
Result: 149 ng/mL

---

# test-name: Pharmacokinetic profile in mice after I.V. injection (LC-MS/MS of plasma, brain, liver, kidney)
# Type: in vivo, mouse
# condition-info: male, C57BL/6, mouse, iv; plasma, 100 mg/kg I.V.; read-out: Clast
experimental-endpoint: concentration at 24 h (ng/mL)
The reply should be a number in ng/mL, with the unit left off.

Ask: Read off the recorded concentration at 24 h for COc1cc(CC(=O)Nc2cc(C3CCC3)[nH]n2)cc(OC)c1OC
Result: 79.2

---

# test-name: Pharmacokinetic profile in mice after I.V. injection (LC-MS/MS of plasma, brain, liver, kidney)
# Format: in vivo, mouse
# condition-info: male, C57BL/6, mouse, iv; brain, 50 mg/kg I.V.; read-out: Clast
experimental-endpoint: concentration at 24 h (ng/mL)
The reply should be a number in ng/mL, with the unit left off.

Ask: Read off the recorded concentration at 24 h for COc1cc(CC(=O)Nc2cc(C3CCC3)[nH]n2)cc(OC)c1OC
Result: 2.73
